// data source = the supplement of paper PMC8975748

# System: Saccharomyces cerevisiae BY4741 SeMeCo community
# assay-explanation: z-score of subpopulation abundance vs DMSO median, subpopulation auxotrophic for L; higher = larger share of this subpopulation than in DMSO controls
# condition-details: 10 µM; 24 h; SM minimal medium; subpopulation (auxotrophy): L
Counter-ions that a name gives are not always drawn.
Label fulfilled when z-score of subpopulation abundance is at or above -0.02; anything below gets not fulfilled.

CC(C)n1c(/C=C/C(O)CC(O)CC(=O)O)c(-c2ccc(F)cc2)c2ccccc21 (stereo not drawn) [Fluvastatin Sodium]: not fulfilled
C[C@]12CC[C@@H]3c4ccc(O)cc4CC[C@H]3[C@@H]1CC[C@@H]2O: not fulfilled
CC[C@H](C)C(=O)O[C@H]1C[C@H](O)C=C2C=C[C@H](C)[C@H](CC[C@@H](O)C[C@@H](O)CC(=O)O)[C@H]21 [Pravastatin sodium]: fulfilled
Cc1ccc(C(=O)C(C)CN2CCCCC2)cc1 (stereo not drawn) [Tolperisone HCl]: not fulfilled
C[C@H](NCc1ccc(OCc2cccc(F)c2)cc1)C(N)=O [Safinamide Mesylate]: fulfilled
CCCOc1ccc(C(=O)OCCN(CC)CC)cc1N [Proparacaine HCl]: fulfilled
CCN(CC)CCNC(=O)c1cc(Cl)c(N)cc1OC [Metoclopramide HCl]: not fulfilled

###

Overview of reported z-score of subpopulation abundance across a group of molecules:
# Test system: Saccharomyces cerevisiae BY4741 SeMeCo community
# assay-explanation: z-score of subpopulation abundance vs DMSO median, subpopulation auxotrophic for HM; higher = larger share of this subpopulation than in DMSO controls
# condition-details: 10 µM; 24 h; SM minimal medium; subpopulation (auxotrophy): HM
Structures can show the parent of a compound that is named as a salt.
measure: z-score of subpopulation abundance

CCc1nc(N)nc(N)c1-c1ccc(Cl)cc1 [Pyrimethamine]: -0.27
CN1CCN(C2=Nc3ccccc3Oc3ccc(Cl)cc32)CC1 [Loxapine Succinate]: 0.14
C[C@H]1c2cccc(O)c2C(O)=C2C(=O)[C@]3(O)C(O)=C(C(N)=O)C(=O)[C@@H](N(C)C)[C@@H]3[C@@H](O)[C@@H]21 [Doxycycline]: -0.76
Nc1ccc(S(=O)(=O)Nc2cnc3ccccc3n2)cc1 [Sulfaquinoxaline sodium]: 0.61
Nc1nc(O)c2ncn(CCC(CO)CO)c2n1 [Penciclovir]: 0.31
CN(Cc1cnc2nc(N)nc(N)c2n1)c1ccc(C(=O)N[C@@H](CCC(=O)O)C(=O)O)cc1 [Methotrexate]: 6.94
CC(C)COc1ccc(CNC(=O)N(Cc2ccc(F)cc2)C2CCN(C)CC2)cc1 [Pimavanserin]: -0.22
CCN(CC)CCOC(=O)c1ccc(N)cc1 [Procaine]: -0.99
CN1CC2c3ccccc3Oc3ccc(Cl)cc3C2C1 (centres undefined) [Asenapine maleate]: -0.76

###

# Tested on: Saccharomyces cerevisiae BY4741 SeMeCo community
# assay-explanation: z-score of subpopulation abundance vs DMSO median, subpopulation auxotrophic for H; higher = larger share of this subpopulation than in DMSO controls
# condition-details: 10 µM; 24 h; SM minimal medium; subpopulation (auxotrophy): H
Where a name gives a salt, the structure may show the parent alone.
measure: z-score of subpopulation abundance

O=C1CCc2cc(OCCCCc3nnnn3C3CCCCC3)ccc2N1: 0.02
COC(=O)C1=C(C)NC(C)=C(C(=O)OCCN(C)Cc2ccccc2)C1c1cccc([N+](=O)[O-])c1 (stereo not given) [Nicardipine HCl]: 0.19
CCCNC(C)C(=O)Nc1ccccc1C (stereo not given) [Prilocaine hydrochloride]: -0.67
Nc1ccc(S(=O)(=O)Nc2nccs2)cc1: -1.09
O=C1c2cccc3c2[C@H](CCC3)CN1[C@@H]1CN2CCC1CC2 [Palonosetron HCl]: -0.32

###

# Tested on: Saccharomyces cerevisiae BY4741 SeMeCo community
# assay-explanation: z-score of subpopulation abundance vs DMSO median, subpopulation auxotrophic for H; higher = larger share of this subpopulation than in DMSO controls
# condition-details: 10 µM; 24 h; SM minimal medium; subpopulation (auxotrophy): H
measure: z-score of subpopulation abundance

O=C1CCc2ccc(OCCCCN3CCN(c4cccc(Cl)c4Cl)CC3)cc2N1: 0.82
Cc1ncc([N+](=O)[O-])n1CC(O)CCl (stereo not given): -0.77
Nc1cc(C(Cl)=C(Cl)Cl)c(S(N)(=O)=O)cc1S(N)(=O)=O: 0.76
C[C@@H](O)[C@H]1C(=O)N2C(C(=O)O)=C(S[C@@H]3CN[C@H](C(=O)N(C)C)C3)[C@H](C)[C@H]12 [Meropenem Trihydrate]: 1.09
N[C@@H]1CONC1=O: 1.3

###

# System: Saccharomyces cerevisiae BY4741 SeMeCo community
# assay-explanation: z-score of subpopulation abundance vs DMSO median, subpopulation auxotrophic for UM; higher = larger share of this subpopulation than in DMSO controls
# condition-details: 10 µM; 24 h; SM minimal medium; subpopulation (auxotrophy): UM
measure: z-score of subpopulation abundance

NC(=NCCCCCCN=C(N)N=C(N)Nc1ccc(Cl)cc1)N=C(N)Nc1ccc(Cl)cc1 [Chlorhexidine?2HCl]: -3.13
CCC(=O)Oc1ccc2c(c1)CCC1C2CCC2(C)C(OC(=O)CC)CCC12 (stereo not drawn) [Estradiol dipropionate(17-Beta-Estradiol-3,17-Dipropionate)]: 0.34
O=C1OCCN1/N=C/c1ccc([N+](=O)[O-])o1: -6.39
C[C@]12CC[C@@H]3c4ccc(OC(=O)c5ccccc5)cc4CC[C@H]3[C@@H]1CC[C@@H]2O [Estradiol Benzoate]: 0.15

###

# System: Saccharomyces cerevisiae BY4741 SeMeCo community
# assay-explanation: z-score of subpopulation abundance vs DMSO median, subpopulation auxotrophic for L; higher = larger share of this subpopulation than in DMSO controls
# condition-details: 10 µM; 24 h; SM minimal medium; subpopulation (auxotrophy): L
Counter-ions that a name gives are not always drawn.
Label class 1 when z-score of subpopulation abundance is at or above -0.06; anything below gets class 0.

O=C(Nc1ccc(Oc2ccc(Cl)cc2)c(Cl)c1)c1cc(I)cc(I)c1O [Rafoxanide]: class 1
CCn1cc(C(=O)O)c(=O)c2cc(F)c(N3CCNCC3)cc21: class 0
Nc1c(Br)cc(Br)cc1CN[C@H]1CC[C@H](O)CC1 [Ambroxol HCl]: class 0
CS(=O)(=O)Nc1ccc([N+](=O)[O-])cc1Oc1ccccc1 [Nimesulide]: class 1
CCc1cccc2c3c([nH]c12)C(CC)(CC(=O)O)OCC3 (stereo not given): class 0
Clc1ccccc1C(c1ccccc1)(c1ccccc1)n1ccnc1: class 0
COc1ccc(CCN(C)CCCC(C#N)(c2ccc(OC)c(OC)c2)C(C)C)cc1OC (stereo not given) [Verapamil HCl]: class 1
COc1ccnc(C[S+]([O-])c2nc3cc(-n4cccc4)ccc3[nH]2)c1C (stereo not given) [Ilaprazole sodium]: class 1
C(=C\c1ccccc1)/CN1CCN(C(c2ccccc2)c2ccccc2)CC1: class 1
C1CCN2C[C@@H]3C[C@@H](CN4CCCC[C@@H]34)[C@H]2C1 [(-)-Sparteine Sulfate]: class 1
CCCCC(=O)O[C@H]1CC[C@H]2[C@@H]3CCc4cc(O)ccc4[C@H]3CC[C@]12C [Estradiol valerate]: class 0
CCCN(CCc1cccs1)[C@H]1CCc2c(O)cccc2C1: class 1
Cc1cccc(Nc2ccccc2C(=O)O)c1C: class 1
C[C@@H]1CN(c2c(F)c(N)c3c(=O)c(C(=O)O)cn(C4CC4)c3c2F)C[C@H](C)N1: class 1

###

# System: Saccharomyces cerevisiae BY4741 SeMeCo community
# assay-explanation: z-score of subpopulation abundance vs DMSO median, subpopulation auxotrophic for L; higher = larger share of this subpopulation than in DMSO controls
# condition-details: 10 µM; 24 h; SM minimal medium; subpopulation (auxotrophy): L
Structures can show the parent of a compound that is named as a salt.
measure: z-score of subpopulation abundance

CN(CCOc1ccc(NS(C)(=O)=O)cc1)CCc1ccc(NS(C)(=O)=O)cc1 [Dofetilide]: -0.53
CCC(=O)O[C@@H]1CC(=O)O[C@H](C)C/C=C/C=C/[C@H](O)[C@H](C)C[C@H](CC=O)[C@H](O[C@@H]2O[C@H](C)[C@@H](O[C@H]3C[C@@](C)(O)[C@@H](OC(=O)CC)[C@H](C)O3)[C@H](N(C)C)[C@H]2O)[C@H]1OC: -0.17
NC(CO)(CO)CO: 0.58
CN1CC2c3ccccc3Oc3ccc(Cl)cc3C2C1 (configuration not stated) [Asenapine maleate]: 1.05
COC(=O)C1=C(C)NC(C)=C(C(=O)OC(C)(C)CN(C)CCC(c2ccccc2)c2ccccc2)C1c1cccc([N+](=O)[O-])c1 (configuration not stated) [Lercanidipine hydrochloride]: 1.4
CC(C(=O)O)c1ccc2c(c1)Cc1cccnc1O2 (configuration not stated): -0.28
CCS(=O)(=O)CCn1c([N+](=O)[O-])cnc1C: 0.1
OC(CCCN1CCCCC1)(c1ccccc1)c1ccccc1 [Diphenidol HCl]: -0.41
CCc1c2c(nc3ccc(OC(=O)N4CCC(N5CCCCC5)CC4)cc13)-c1cc3c(c(=O)n1C2)COC(=O)[C@]3(O)CC [Irinotecan HCl Trihydrate]: -0.66
Cc1cc(C)nc(NS(=O)(=O)c2ccc(N)cc2)n1 [Sulfamethazine]: 0.4
Nc1ccc(S(=O)(=O)Nc2ncccn2)cc1 [Sodium sulfadiazine]: 0.56
CC[C@H]1OC(=O)[C@H](C)[C@@H](O[C@H]2C[C@@](C)(OC)[C@@H](O)[C@H](C)O2)[C@H](C)[C@@H](O[C@@H]2O[C@H](C)C[C@H](N(C)C)[C@H]2O)[C@](C)(O)C[C@@H](C)CN(C)[C@H](C)[C@@H](O)[C@]1(C)O: 0.82
NC(=O)c1cn(Cc2c(F)cccc2F)nn1 [Rufinamide]: 1.41
CCOC(=O)c1ccc(N)cc1: -0.13
NC(=O)N/N=C/c1ccc([N+](=O)[O-])o1: -0.82
CO[C@@]1(NC(=O)Cc2cccs2)C(=O)N2C(C(=O)O)=C(COC(N)=O)CS[C@@H]21 [Cefoxitin sodium]: -1.28
N[C@@H](CCC(=O)O)C(=O)O [(S)-Glutamic acid]: 0.52
